Tested on: DU-145 prostate
protocol.notes: NCI tumour cell line growth inhibition, 48 h; in the data active = GI50 below about 0.43 µM; inactive = the rest
// allowed return values: TRUE = active, FALSE = inactive

# example entries with known answers
[
  {
    "molecule": "Nc1cc(-c2ccccc2)ccc1O",
    "experimental.target": "DU-145 prostate",
    "class": "FALSE"
  },
  {
    "molecule": "CCN(CC)CCOc1ccc(/C=C2\\CC3C4CCC5=CC(=O)CC[C@]5(C)C4CC[C@]3(C)C2=O)cc1OC (some centres undefined)",
    "experimental.target": "DU-145 prostate",
    "class": "FALSE"
  },
  {
    "molecule": "COC(=O)CCC(=O)c1c(C)[nH]c(/C=C2\\N=C(c3ccc[nH]3)C=C2OC)c1C",
    "experimental.target": "DU-145 prostate",
    "class": "TRUE"
  }
]

Then this molecule:
Ask: Hey, what did the test say about CC(=O)OC1COC(S[As](C)C)C(OC(C)=O)C1OC(C)=O (centres undefined) ?
Reply: TRUE

----------
Test system: LXFL 529 NSCLC
protocol.notes: NCI tumour cell line growth inhibition, 48 h
reported.endpoint: TGI

Here is how some compounds turned out for TGI.
[
  {
    "compound": "C(=C\\c1csnn1)/c1cccnc1",
    "experimental.target": "LXFL 529 NSCLC",
    "TGI": "> 100 µM"
  },
  {
    "compound": "COc1ccc2c3c1C(=O)CCC3CO2 (stereo not given)",
    "experimental.target": "LXFL 529 NSCLC",
    "TGI": "> 100 µM"
  },
  {
    "compound": "Cc1ccc(NC(=O)/C(CC(=O)c2c[n+](=O)c3ccccc3n2O)=N\\NC(=O)C[n+]2ccccc2)cc1",
    "experimental.target": "LXFL 529 NSCLC",
    "TGI": "> 100 µM"
  },
  {
    "compound": "O=C1C=C(Nc2ccccc2C(=O)CC(=O)C(=O)Nc2cccc(C(F)(F)F)c2)c2ccccc2C1=O",
    "experimental.target": "LXFL 529 NSCLC",
    "TGI": "71.5 µM"
  },
  {
    "compound": "CC(c1ccc(Br)cc1)C(C(=O)O)C(=O)O (stereo not given)",
    "experimental.target": "LXFL 529 NSCLC",
    "TGI": "> 100 µM"
  }
]

Ask: Tell me the measured TGI of O=Cc1ccc(-c2ccc(-c3ccc(C=O)s3)o2)s1 , please.
Reply: 0.324 µM

Ask: Tell me the measured TGI of Cc1ccc(C(=O)C(C)N)cc1 (stereo not given) , please.
Reply: > 100 µM

Ask: Tell me the measured TGI of COc1cc(-c2[nH]ccc2Cl)oc1C1=C2N=C3C=C2C(C(C)C)C1CCCCCCCC3 (stereo not given) , please.
Reply: 1.84 µM

----------
System: SNB-75 CNS
protocol.notes: NCI tumour cell line growth inhibition, 48 h
reported.endpoint: TGI

Here is how some compounds turned out for TGI.
[
  {
    "compound": "O=c1[nH]c(Br)nc2c(Br)c[nH]c12",
    "TGI": "> 100 µM"
  },
  {
    "compound": "O=S1(=O)CCN(Cc2ccccn2)CC1",
    "TGI": "> 100 µM"
  }
]

Ask: Tell me the measured TGI of O=C(CSc1nc(=O)[nH]c2nc[nH]c12)Nc1ccccc1 , please.
Reply: > 100 µM

Ask: Tell me the measured TGI of CCN(CC)CCOc1ccc(/C=C2\CC3C4CCC5=CC(=O)CC[C@]5(C)C4CC[C@]3(C)C2=O)cc1OC (some centres undefined) , please.
Reply: 7.78 µM

Ask: Tell me the measured TGI of CCP(=O)(CC)C(Cl)(Cl)C(O)C(C)(C)C (centres undefined) , please.
Reply: > 100 µM

Ask: Tell me the measured TGI of CN1C(=O)CNC(=O)[C@H](NC(=O)c2nc3ccccc3cc2O)CSSC[C@H]1C(=O)NCCc1nc2ccccc2cc1O , please.
Reply: 33.9 µM
